conditions: in n-octanol, 283.65 K
endpointName: solubility (mole fraction)
Answers are plain numbers.

Which solubility (mole fraction) value belongs to ON(Cc1ccccc1)Cc1ccccc1 ?
0.00248

====

conditions: in n-octanol, 273.15 K
endpointName: solubility (mole fraction)

Which solubility (mole fraction) value belongs to ON(Cc1ccccc1)Cc1ccccc1 ?
0.00126

====

details: in acetonitrile, 313.15 K
endpointName: solubility (mole fraction)
Answers are plain numbers.

Which solubility (mole fraction) value belongs to ON(Cc1ccccc1)Cc1ccccc1 ?
0.014

====

conditions: in isobutanol, 303.25 K
endpointName: solubility (mole fraction)
Give bare numbers.

Which solubility (mole fraction) value belongs to ON(Cc1ccccc1)Cc1ccccc1 ?
0.00446

====

settings: in ethanol, 317.15 K
endpointName: solubility (mole fraction)
One number for each entry.

Which solubility (mole fraction) value belongs to ON(Cc1ccccc1)Cc1ccccc1 ?
0.0103

====

settings: in THF, 293.75 K
endpointName: solubility (mole fraction)

Which solubility (mole fraction) value belongs to ON(Cc1ccccc1)Cc1ccccc1 ?
0.0865

====

details: in n-propanol, 283.45 K
endpointName: solubility (mole fraction)
One number for each entry.

Which solubility (mole fraction) value belongs to ON(Cc1ccccc1)Cc1ccccc1 ?
0.00232

====

conditions: in acetonitrile, 293.05 K
endpointName: solubility (mole fraction)
Answers are plain numbers.

Which solubility (mole fraction) value belongs to ON(Cc1ccccc1)Cc1ccccc1 ?
0.0049

====

conditions: in n-pentanol, 293.75 K
endpointName: solubility (mole fraction)
Answers are plain numbers.

Which solubility (mole fraction) value belongs to ON(Cc1ccccc1)Cc1ccccc1 ?
0.00479

====

conditions: in 1,2,4-trichlorobenzene, 299.15 K
endpointName: solubility (mole fraction)
Numbers only.

Which solubility (mole fraction) value belongs to ON(Cc1ccccc1)Cc1ccccc1 ?
0.0103

====

details: in methanol, 283.45 K
endpointName: solubility (mole fraction)
Numbers only.

Which solubility (mole fraction) value belongs to ON(Cc1ccccc1)Cc1ccccc1 ?
0.00209

====

settings: in ethanol, 293.05 K
endpointName: solubility (mole fraction)
Give bare numbers.

Which solubility (mole fraction) value belongs to ON(Cc1ccccc1)Cc1ccccc1 ?
0.00342

====

settings: in methanol, 302.85 K
endpointName: solubility (mole fraction)
Answers are plain numbers.

Which solubility (mole fraction) value belongs to ON(Cc1ccccc1)Cc1ccccc1 ?
0.00513

====

conditions: in THF, 323.15 K
endpointName: solubility (mole fraction)

Which solubility (mole fraction) value belongs to ON(Cc1ccccc1)Cc1ccccc1 ?
0.169

====

conditions: in toluene, 298.65 K
endpointName: solubility (mole fraction)
One number for each entry.

Which solubility (mole fraction) value belongs to ON(Cc1ccccc1)Cc1ccccc1 ?
0.0149

====

conditions: in acetonitrile, 279.15 K
endpointName: solubility (mole fraction)
Answers are plain numbers.

Which solubility (mole fraction) value belongs to ON(Cc1ccccc1)Cc1ccccc1 ?
0.00222

====

details: in toluene, 318.95 K
endpointName: solubility (mole fraction)
One number for each entry.

Which solubility (mole fraction) value belongs to ON(Cc1ccccc1)Cc1ccccc1 ?
0.0337

====

conditions: in n-pentanol, 323.15 K
endpointName: solubility (mole fraction)
One number for each entry.

Which solubility (mole fraction) value belongs to ON(Cc1ccccc1)Cc1ccccc1 ?
0.0185

====

conditions: in acetone, 302.85 K
endpointName: solubility (mole fraction)
Answers are plain numbers.

Which solubility (mole fraction) value belongs to ON(Cc1ccccc1)Cc1ccccc1 ?
0.0282

====

settings: in ethanol, 283.45 K
endpointName: solubility (mole fraction)
One number for each entry.

Which solubility (mole fraction) value belongs to ON(Cc1ccccc1)Cc1ccccc1 ?
0.00215

====

conditions: in 1,2-dichlorobenzene, 273.15 K
endpointName: solubility (mole fraction)
Numbers only.

Which solubility (mole fraction) value belongs to ON(Cc1ccccc1)Cc1ccccc1 ?
0.00343

====

conditions: in n-pentanol, 308.45 K
endpointName: solubility (mole fraction)
One number for each entry.

Which solubility (mole fraction) value belongs to ON(Cc1ccccc1)Cc1ccccc1 ?
0.00965

====

settings: in isobutanol, 318.95 K
endpointName: solubility (mole fraction)
Answers are plain numbers.

Which solubility (mole fraction) value belongs to ON(Cc1ccccc1)Cc1ccccc1 ?
0.0097

====

conditions: in 1,2-dichlorobenzene, 279.15 K
endpointName: solubility (mole fraction)
One number for each entry.

Which solubility (mole fraction) value belongs to ON(Cc1ccccc1)Cc1ccccc1 ?
0.00486

====

conditions: in 1,2-dichlorobenzene, 303.25 K
endpointName: solubility (mole fraction)
Numbers only.

Which solubility (mole fraction) value belongs to ON(Cc1ccccc1)Cc1ccccc1 ?
0.0182

====

conditions: in isobutanol, 298.65 K
endpointName: solubility (mole fraction)
One number for each entry.

Which solubility (mole fraction) value belongs to ON(Cc1ccccc1)Cc1ccccc1 ?
0.00355

====

details: in dichloromethane, 302.85 K
endpointName: solubility (mole fraction)

Which solubility (mole fraction) value belongs to ON(Cc1ccccc1)Cc1ccccc1 ?
0.0534

====

settings: in n-propanol, 293.05 K
endpointName: solubility (mole fraction)
One number for each entry.

Which solubility (mole fraction) value belongs to ON(Cc1ccccc1)Cc1ccccc1 ?
0.00383

====

conditions: in ethanol, 297.65 K
endpointName: solubility (mole fraction)
One number for each entry.

Which solubility (mole fraction) value belongs to ON(Cc1ccccc1)Cc1ccccc1 ?
0.00426

====

conditions: in acetone, 273.15 K
endpointName: solubility (mole fraction)
Give bare numbers.

Which solubility (mole fraction) value belongs to ON(Cc1ccccc1)Cc1ccccc1 ?
0.00762

====

settings: in ethyl acetate, 273.15 K
endpointName: solubility (mole fraction)
Give bare numbers.

Which solubility (mole fraction) value belongs to ON(Cc1ccccc1)Cc1ccccc1 ?
0.00842

====

settings: in toluene, 273.15 K
endpointName: solubility (mole fraction)
Give bare numbers.

Which solubility (mole fraction) value belongs to ON(Cc1ccccc1)Cc1ccccc1 ?
0.0043

====

conditions: in n-octanol, 279.15 K
endpointName: solubility (mole fraction)
Numbers only.

Which solubility (mole fraction) value belongs to ON(Cc1ccccc1)Cc1ccccc1 ?
0.00187

====

conditions: in dichloromethane, 312.15 K
endpointName: solubility (mole fraction)
Numbers only.

Which solubility (mole fraction) value belongs to ON(Cc1ccccc1)Cc1ccccc1 ?
0.0798

====

settings: in isopropanol, 273.15 K
endpointName: solubility (mole fraction)
Numbers only.

Which solubility (mole fraction) value belongs to ON(Cc1ccccc1)Cc1ccccc1 ?
0.000527

====

details: in n-propanol, 317.15 K
endpointName: solubility (mole fraction)

Which solubility (mole fraction) value belongs to ON(Cc1ccccc1)Cc1ccccc1 ?
0.012

====

conditions: in isobutanol, 323.35 K
endpointName: solubility (mole fraction)
Answers are plain numbers.

Which solubility (mole fraction) value belongs to ON(Cc1ccccc1)Cc1ccccc1 ?
0.0119

====

conditions: in dichloromethane, 283.45 K
endpointName: solubility (mole fraction)

Which solubility (mole fraction) value belongs to ON(Cc1ccccc1)Cc1ccccc1 ?
0.0226

====

conditions: in acetonitrile, 317.15 K
endpointName: solubility (mole fraction)
One number for each entry.

Which solubility (mole fraction) value belongs to ON(Cc1ccccc1)Cc1ccccc1 ?
0.0168

====

details: in n-butanol, 283.45 K
endpointName: solubility (mole fraction)
One number for each entry.

Which solubility (mole fraction) value belongs to ON(Cc1ccccc1)Cc1ccccc1 ?
0.00248

====

conditions: in n-pentanol, 273.65 K
endpointName: solubility (mole fraction)
Numbers only.

Which solubility (mole fraction) value belongs to ON(Cc1ccccc1)Cc1ccccc1 ?
0.00163

====

conditions: in acetonitrile, 297.65 K
endpointName: solubility (mole fraction)
Give bare numbers.

Which solubility (mole fraction) value belongs to ON(Cc1ccccc1)Cc1ccccc1 ?
0.00624

====

conditions: in methanol, 297.65 K
endpointName: solubility (mole fraction)

Which solubility (mole fraction) value belongs to ON(Cc1ccccc1)Cc1ccccc1 ?
0.00409

====

conditions: in cyclohexanone, 303.25 K
endpointName: solubility (mole fraction)

Which solubility (mole fraction) value belongs to ON(Cc1ccccc1)Cc1ccccc1 ?
0.0654

====

conditions: in dichloromethane, 289.05 K
endpointName: solubility (mole fraction)
Numbers only.

Which solubility (mole fraction) value belongs to ON(Cc1ccccc1)Cc1ccccc1 ?
0.0287

====

conditions: in acetone, 297.65 K
endpointName: solubility (mole fraction)
Numbers only.

Which solubility (mole fraction) value belongs to ON(Cc1ccccc1)Cc1ccccc1 ?
0.0229

====

conditions: in toluene, 313.25 K
endpointName: solubility (mole fraction)

Which solubility (mole fraction) value belongs to ON(Cc1ccccc1)Cc1ccccc1 ?
0.0273

====

settings: in n-butanol, 323.15 K
endpointName: solubility (mole fraction)
Give bare numbers.

Which solubility (mole fraction) value belongs to ON(Cc1ccccc1)Cc1ccccc1 ?
0.0159

====

conditions: in n-octanol, 298.65 K
endpointName: solubility (mole fraction)
Numbers only.

Which solubility (mole fraction) value belongs to ON(Cc1ccccc1)Cc1ccccc1 ?
0.00627

====

conditions: in 1,2-dichlorobenzene, 313.25 K
endpointName: solubility (mole fraction)
Answers are plain numbers.

Which solubility (mole fraction) value belongs to ON(Cc1ccccc1)Cc1ccccc1 ?
0.0302

====

details: in ethyl acetate, 313.15 K
endpointName: solubility (mole fraction)
One number for each entry.

Which solubility (mole fraction) value belongs to ON(Cc1ccccc1)Cc1ccccc1 ?
0.0483
